# System: HS 578T breast
# Method notes: NCI-60 one-dose screen, 48 h
# Experimental parameters: 10 µM unless noted
The panel holds about 83,000 compounds, 20% with a hit somewhere; the sample as a whole holds those more often. Calls of active or inactive are those of the source. Rule for the calls: active = growth percent below 10; inactive = the rest.
Reply using exactly one outcome from active, inactive

{"columns": ["Molecule", "Class name"],
 "data": [
  ["CCOc1ccc(/C=N/Nc2cc(C)nc3ccc(Br)cc23)cc1", "inactive"]
]}

stdin: Dear colleague, could you share the recorded outcome for CN[C@@H](C)C(=O)N[C@H]1CCS[C@H]2CC(C)(C)[C@@H](C(=O)N[C@H]3c4ccccc4C[C@H]3OCC#CC#CCO[C@@H]3Cc4ccccc4[C@@H]3NC(=O)[C@H]3N4C(=O)[C@@H](NC(=O)[C@H](C)NC)CCS[C@H]4CC3(C)C)N2C1=O when you have a moment?
stdout: inactive

stdin: What outcome does the record of this test show for Oc1ccc(C2c3ccccc3Oc3ccccc32)c2cccnc12 ?
stdout: inactive

stdin: What outcome does the record of this test show for COc1ccc(Cc2cnc(NC(=O)c3ccc4c(c3)OCCO4)s2)cc1 ?
stdout: inactive

stdin: Check the results log: what was the call for O=C(CCN1CCCC1)c1ccc([N+](=O)[O-])cc1 ?
stdout: inactive

stdin: GET /call?item= NS(=O)(=O)c1ccc(Cn2c(SCC(=O)N/N=C/c3ccccc3O)nc3ccccc3c2=O)cc1 returns the recorded outcome of this test.
stdout: inactive
